System: KNS-42
Test: Loewe synergy score (Combenefit); higher = more synergy; extreme values may be limits of the assay
Conditions: exposure time: 72 h
Lab note: anything with Loewe synergy score at or over 2 counts as condition met; the rest go in condition not met.

Solved cases below.
COMPOUND: Nc1ccn([C@@H]2O[C@H](CO)[C@@H](O)C2(F)F)c(=O)n1 [Gemcitabine] + C[C@@H](Oc1cc(-c2cnn(C3CCNCC3)c2)cnc1N)c1c(Cl)ccc(F)c1Cl [Crizotinib]
ASSIGNED CLASS: condition not met
//
COMPOUND: C=CCc1cccc(/C=N/NC(=O)CN2CCN(Cc3ccccc3)CC2)c1O [PAC-1] + Cc1cc([C@@H](C)Nc2ccccc2C(=O)O)c2nc(N3CCOCC3)cc(=O)n2c1 [AZD6482]
ASSIGNED CLASS: condition met

Tell me whether Loewe synergy score is at least 2 here: C[C@@H](Oc1cc(-c2cnn(C3CCNCC3)c2)cnc1N)c1c(Cl)ccc(F)c1Cl [Crizotinib] + C=CCc1cccc(/C=N/NC(=O)CN2CCN(Cc3ccccc3)CC2)c1O [PAC-1]
condition met

hey, is Loewe synergy score for this one >= 2? CCC(=O)N1CCN(c2ccc(-n3c(=O)ccc4cnc5ccc(-c6cnc7ccccc7c6)cc5c43)cc2C(F)(F)F)CC1 [Torin1] + C#Cc1cccc(Nc2ncnc3cc(OCCOC)c(OCCOC)cc23)c1 [Erlotinib]
condition met

Kindly determine if Loewe synergy score recorded for CC(=O)O[C@@]12CO[C@@H]1C[C@H](O)[C@@]1(C)C(=O)[C@H](O)C3=C(C)[C@@H](OC(=O)[C@H](O)[C@@H](NC(=O)OC(C)(C)C)c4ccccc4)C[C@@](O)([C@@H](OC(=O)c4ccccc4)[C@H]21)C3(C)C [Docetaxel] + O=c1[nH]c2ccccc2n1C1CCN(Cc2ccc(-c3[nH]c4cc5ncnc5cc4nc3-c3ccccc3)cc2)CC1 [Akt inhibitor VIII] is above or exactly 2.
condition met

----------
Entries and their Loewe synergy score
Test system: SNB75
Test: Loewe synergy score (Combenefit); higher = more synergy; extreme values may be limits of the assay
Conditions: exposure time: 72 h
Keep the answer to the number alone.

Known results for compounds:
COMPOUND: CO[C@H]1C[C@@H]2CC[C@@H](C)[C@@](O)(O2)C(=O)C(=O)N2CCCC[C@H]2C(=O)O[C@H]([C@H](C)C[C@@H]2CC[C@@H](O)[C@H](OC)C2)CC(=O)[C@H](C)/C=C(\C)[C@@H](O)[C@@H](OC)C(=O)[C@H](C)C[C@H](C)/C=C/C=C/C=C/1C [Rapamycin] + CCOc1nc(NC(=O)Cc2cc(OC)ccc2OC)cc(N)c1C#N [JNK inhibitor VIII]
Loewe synergy score: 16.7
--
COMPOUND: CCC(=O)N1CCN(c2ccc(-n3c(=O)ccc4cnc5ccc(-c6cnc7ccccc7c6)cc5c43)cc2C(F)(F)F)CC1 [Torin1] + O=c1[nH]c2ccccc2n1C1CCN(Cc2ccc(-c3[nH]c4cc5ncnc5cc4nc3-c3ccccc3)cc2)CC1 [Akt inhibitor VIII]
Loewe synergy score: 0.719
--
COMPOUND: C#Cc1cccc(Nc2ncnc3cc(OCCOC)c(OCCOC)cc23)c1 [Erlotinib] + O=c1[nH]c2ccccc2n1C1CCN(Cc2ccc(-c3[nH]c4cc5ncnc5cc4nc3-c3ccccc3)cc2)CC1 [Akt inhibitor VIII]
Loewe synergy score: 4.44
--
COMPOUND: Cc1cc([C@@H](C)Nc2ccccc2C(=O)O)c2nc(N3CCOCC3)cc(=O)n2c1 [AZD6482] + CCOc1nc(NC(=O)Cc2cc(OC)ccc2OC)cc(N)c1C#N [JNK inhibitor VIII]
Loewe synergy score: 6.97
--
COMPOUND: O=c1[nH]c2ccccc2n1C1CCN(Cc2ccc(-c3[nH]c4cc5ncnc5cc4nc3-c3ccccc3)cc2)CC1 [Akt inhibitor VIII] + N#CC(c1ccnc(NCCc2cccnc2)n1)c1nc2ccccc2s1 [AS601245]
Loewe synergy score: 0.62

So what does the record say about Loewe synergy score for Nc1ccn([C@@H]2O[C@H](CO)[C@@H](O)C2(F)F)c(=O)n1 [Gemcitabine] + CO[C@H]1C[C@@H]2CC[C@@H](C)[C@@](O)(O2)C(=O)C(=O)N2CCCC[C@H]2C(=O)O[C@H]([C@H](C)C[C@@H]2CC[C@@H](O)[C@H](OC)C2)CC(=O)[C@H](C)/C=C(\C)[C@@H](O)[C@@H](OC)C(=O)[C@H](C)C[C@H](C)/C=C/C=C/C=C/1C [Rapamycin] ?
4.52

Fill in the blank: the reported Loewe synergy score of C[C@@H](Oc1cc(-c2cnn(C3CCNCC3)c2)cnc1N)c1c(Cl)ccc(F)c1Cl [Crizotinib] + Cc1cc([C@@H](C)Nc2ccccc2C(=O)O)c2nc(N3CCOCC3)cc(=O)n2c1 [AZD6482] is ____.
3.14

Which value of Loewe synergy score has been reported for CCCCCCCCCCCC1=C(O)C(=O)C=C(O)C1=O [Embelin] + N#CC(c1ccnc(NCCc2cccnc2)n1)c1nc2ccccc2s1 [AS601245] in the records?
0.557

Origin of values: the supplement of paper PMC7287046
